Each recorded value in this set is attributed to patent US20240270821A1.

Molecular target: human glucagon receptor (human) (UniProt P47871)
Sequence (P47871 26-477): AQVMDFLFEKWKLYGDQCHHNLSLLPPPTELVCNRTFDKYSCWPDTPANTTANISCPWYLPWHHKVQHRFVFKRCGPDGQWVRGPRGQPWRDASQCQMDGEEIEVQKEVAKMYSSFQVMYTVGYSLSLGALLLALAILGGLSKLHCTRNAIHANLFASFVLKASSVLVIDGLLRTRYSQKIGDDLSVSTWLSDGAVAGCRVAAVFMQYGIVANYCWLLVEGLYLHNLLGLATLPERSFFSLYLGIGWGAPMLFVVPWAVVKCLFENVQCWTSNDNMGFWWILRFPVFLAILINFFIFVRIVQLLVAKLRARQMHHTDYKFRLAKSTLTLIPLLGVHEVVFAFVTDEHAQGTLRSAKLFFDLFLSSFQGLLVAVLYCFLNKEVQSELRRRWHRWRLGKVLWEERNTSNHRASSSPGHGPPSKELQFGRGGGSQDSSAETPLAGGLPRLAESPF
Experiment: cell-based or functional assay
binders and their reported Relative cAMP EC50
Unit nM implied. Number only.

[in] For YXQGTXTSDYSILLDKKAQXAFIEFLEEGGPSSGAPPPSEG (not fully specified; synthetic construct; SITE 2: note = 2-Aminoisobutyric Acid; SITE 6: note = alpha-methyl-2-fluoro-L-phenylalanine; SITE 17: note = Lysine is chemically modified through conjugation of the epsilon-amino group of the Lysine side chain with (2-[2-(2-Amino-ethoxy)-ethoxy]-acetyl)-(gamma-Glu)-CO-(CH2) 16-) [Example 412] , what is its reported Relative cAMP EC50?
[out] 2.36
